List of IC50 values.
biological target: HDAC8 (Homo sapiens (Human))
Sequence (Q9BY41 whole entry): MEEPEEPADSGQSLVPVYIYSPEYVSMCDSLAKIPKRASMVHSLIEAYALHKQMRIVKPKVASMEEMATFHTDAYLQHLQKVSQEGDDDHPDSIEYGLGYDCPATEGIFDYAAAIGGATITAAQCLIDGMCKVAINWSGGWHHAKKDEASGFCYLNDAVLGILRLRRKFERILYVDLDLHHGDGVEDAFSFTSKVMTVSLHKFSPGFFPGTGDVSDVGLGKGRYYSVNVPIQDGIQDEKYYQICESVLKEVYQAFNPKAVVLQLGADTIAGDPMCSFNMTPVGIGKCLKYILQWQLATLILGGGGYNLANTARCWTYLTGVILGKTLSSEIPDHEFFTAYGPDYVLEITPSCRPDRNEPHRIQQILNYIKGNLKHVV
Could you give me the number in µM? Just the number is fine.

Cn1c(OCc2ccc(-c3noc(C(F)(F)F)n3)c(F)c2)nc2cccnc21 : 1.3
CN(C)C(=O)c1cccc(NCc2ccc(-c3noc(C(F)(F)F)n3)cn2)c1 : 1

Ask: // Input: Cc1cccc(CCOc2cc(-c3noc(C(F)(F)F)n3)ccn2)n1 . Output its IC50 only.
Result: 4.6

Ask: Consider the compound O=C1CCc2cccc(C(F)(F)F)c2N1Cc1ccc(-c2noc(C(F)(F)F)n2)cn1 . State its measured IC50.
Result: 5.6

###

This document collects pIC50 values reported for HDAC8 (Homo sapiens (Human)).
FYI, pIC50 means -log10 of a concentration in mol per litre.

# annotated cases, reported pIC50 shown
O=C1CCC(c2ccccc2Cl)N1c1ccc(-c2noc(C(F)(F)F)n2)cc1F (centres unmarked) : 5.51
O=C(NCc1ccccc1)c1ccccc1NCc1ccc(-c2noc(C(F)(F)F)n2)cn1 : 6.28
O=C(NC(Cc1ccc(-c2noc(C(F)(F)F)n2)cn1)c1cccc(C(F)(F)F)c1)c1ncccn1 (racemic) : 5.60
Cc1nc2ccc(F)cc2n1Cc1ccc(-c2noc(C(F)(F)F)n2)cc1F : 5.23
NC(=O)c1ccccc1NCc1ccc(-c2noc(C(F)(F)F)n2)cn1 : 6.15

Ask: Identify measured pIC50 corresponding to O=C(C1CCS(=O)(=O)CC1)N(Cc1ccc(-c2noc(C(F)(F)F)n2)c(F)c1)c1cccc(C(F)(F)F)c1
Result: 5.16

Ask: Name the recorded pIC50 of the item CC1(C)CC(C(=O)N(Cc2ccc(-c3noc(C(F)(F)F)n3)cn2)c2cccc(F)c2)CCO1 (racemic) in your answer.
Result: 5.82

Ask: State, in one line, measured pIC50 of Cc1noc(CC(=O)N(Cc2ccc(-c3noc(C(F)(F)F)n3)cn2)c2cccc(F)c2)n1
Result: 6.00

###

biological target: HDAC5 (Homo sapiens (Human))
Sequence (Q9UQL6 656-1122): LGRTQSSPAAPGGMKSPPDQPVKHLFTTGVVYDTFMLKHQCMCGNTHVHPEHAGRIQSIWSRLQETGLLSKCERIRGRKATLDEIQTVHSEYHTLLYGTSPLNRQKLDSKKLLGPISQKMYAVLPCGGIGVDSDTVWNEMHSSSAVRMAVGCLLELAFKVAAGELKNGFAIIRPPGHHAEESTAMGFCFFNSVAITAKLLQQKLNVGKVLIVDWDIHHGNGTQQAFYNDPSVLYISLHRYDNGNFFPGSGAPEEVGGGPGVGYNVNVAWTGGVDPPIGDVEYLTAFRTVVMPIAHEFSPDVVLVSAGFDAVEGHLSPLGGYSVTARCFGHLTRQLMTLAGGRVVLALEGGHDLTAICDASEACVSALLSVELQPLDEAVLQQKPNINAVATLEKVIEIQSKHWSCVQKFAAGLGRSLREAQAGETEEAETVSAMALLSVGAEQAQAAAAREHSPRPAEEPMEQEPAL
pIC50: −log10 of the molar value.
Record label 1 whenever pIC50 is at 7 or higher; record label 0 when lower.

Ask: Please tell me: is the compound FC(F)(F)c1nc(-c2ccc(COc3cccc4[nH]nnc34)nc2)no1 at or over 7 in terms of pIC50?
Result: label 1

Ask: Can Fc1ccccc1OCc1cc(-c2noc(C(F)(F)F)n2)ccn1 be said to have pIC50 at or above 7?
Result: label 0

Ask: Entry NCc1cccc(OCc2ccc(-c3noc(C(F)(F)F)n3)c(F)c2)c1 : is its pIC50 no less than 7?
Result: label 0

###

This section lists pIC50 readings for HDAC8 (Homo sapiens (Human), UniProt Q9BY41).
Entry type: numeric. Quantity: pIC50, the -log10 of concentration in molar units.

Ask: State, in one line, measured pIC50 of O=C(CN1CCS(=O)(=O)CC1)N(Cc1ccc(-c2noc(C(F)(F)F)n2)cc1)c1cccc(C(F)(F)F)c1 [Example 81]
Result: 5.31

Ask: Give me measured pIC50, please, for this molecule: O=C([C@@H]1CCC(=O)N1c1cc(F)c(-c2noc(C(F)(F)F)n2)cc1F)N1CCCc2ccccc21 [Example 334]
Result: 4.72

Ask: Identify the reported pIC50 for the following entry. COC(=O)N1CCC(C(=O)N(Cc2ccc(-c3noc(C(F)(F)F)n3)cn2)c2cccc(C(F)(F)F)c2)CC1 [Example 198]
Result: 5.89

Ask: Let me know recorded pIC50 for Cc1ccc(NCc2ccc(-c3noc(C(F)(F)F)n3)c(F)c2)cn1 [Example 253] , thanks.
Result: 5.41

Ask: Output pIC50 of CC(=O)N1CCN(CC(=O)N(Cc2ccc(-c3noc(C(F)(F)F)n3)cc2)c2cccc(C(F)(F)F)c2)CC1 [Example 69]
Result: 5.59

Ask: Quote pIC50 reported for Cc1nnc(CC(=O)N(Cc2ccc(-c3noc(C(F)(F)F)n3)cn2)c2cccc(F)c2)s1 [Example 395] please.
Result: 5.89

Ask: Assign pIC50 to the following record: O=C(C(Cc1ccc(-c2noc(C(F)(F)F)n2)cn1)c1cccc(C(F)(F)F)c1)N1CC[S+]([O-])CC1 (racemic) [Example 199]
Result: 5.00

Ask: For the molecule Cn1cnc2cc(COc3nccc(-c4noc(C(F)(F)F)n4)c3Cl)ccc21 [Example 255] , report pIC50.
Result: 5.80

Ask: Return reported pIC50. Input molecule: O=C(Cn1cnc2ccccc21)N(Cc1ccc(-c2noc(C(F)(F)F)n2)cc1)c1cccc(C(F)(F)F)c1 [Example 98]
Result: 5.64
